measurementProtocol: chemical genetic growth profiling, strain panel (AID 1159580);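 also: tested at 20 µM; growth read once vehicle control cultures reached saturation at 30 °C; lower values mean less growth of the strain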
conditionInfo: S. cerevisiae deletion strains, growth OD, locus YLR113W, strain HOG1
Screen size: about 5,500 compounds; about 2,000 (36%) were called active. Another 18% or so got no clear call; they are omitted. Rule as the data show it: active = normalized growth mostly below about 0.91 (no sharp cut-off); inconclusive = no clear call, values can overlap the other calls; inactive = mostly above about 0.92. The list shows a part of the results.
Respond using exactly one of the listed classes: true = active, false = inactive

Incoming: Please let me know the test result on file for COc1ccc(C2Sc3ccccc3N(CCN(C)C)C(=O)C2OC(C)=O)cc1 (configuration not stated) .
Outgoing: false

Incoming: Please let me know the test result on file for Cc1nn(-c2cccc(Cl)c2)c2oc(=O)cc(C(F)(F)F)c12 .
Outgoing: true

Incoming: Please let me know the test result on file for O=C(CSC1=NNC(c2ccccn2)S1)Nc1ccccc1 (configuration not stated) .
Outgoing: false

Incoming: Please let me know the test result on file for C=C1c2c(Cl)ccc(O)c2C(O)=C2C(=O)[C@]3(O)C(O)=C(C(N)=O)C(=O)[C@@H](N(C)C)[C@@H]3[C@@H](O)[C@H]12 .
Outgoing: false

Incoming: Please let me know the test result on file for CN(C)[C@@H]1C(=O)C(C(N)=O)=C(O)[C@@]2(O)C(=O)C3=C(O)c4c(O)ccc(Cl)c4[C@@H](O)[C@H]3C[C@@H]12 .
Outgoing: false

Incoming: Please let me know the test result on file for CC1(C)CC2C1CC[C@]1(CBr)CCC3C(CC(=O)O)C(=O)O[C@@]32C1 (some centres not stated) .
Outgoing: false

Incoming: Please let me know the test result on file for NCC(=O)c1ccccc1 .
Outgoing: false

Incoming: Please let me know the test result on file for CC[N+](C)(C)c1cccc(O)c1 .
Outgoing: false

Incoming: Please let me know the test result on file for COc1ccc([C@@H]2CC(=O)c3c(O)cc(O[C@@H]4O[C@H](CO[C@H]5O[C@@H](C)[C@H](O)[C@@H](O)[C@H]5O)[C@@H](O)[C@H](O)[C@H]4O)cc3O2)cc1O .
Outgoing: false

Incoming: Please let me know the test result on file for C#CCSC1=NNC(c2ccccn2)S1 (configuration not stated) .
Outgoing: true

Incoming: Please let me know the test result on file for O=C(O)C1=CCCNC1 .
Outgoing: false

Incoming: Please let me know the test result on file for Cc1ccc(-n2cccc2)c(NS(=O)(=O)c2ccc(-c3ccno3)s2)c1 .
Outgoing: true

Incoming: Please let me know the test result on file for CN(C)c1ccc(O)c2c1C[C@H]1C[C@H]3[C@H](N(C)C)C(=O)C(C(N)=O)=C(O)[C@@]3(O)C(=O)C1=C2O .
Outgoing: false

Incoming: Please let me know the test result on file for Cc1onc(-c2c(Cl)cccc2Cl)c1C(=O)O/N=C(/N)Cc1ccc(C(C)(C)C)cc1 .
Outgoing: false

Incoming: Please let me know the test result on file for CC12CCC(=O)C=C1CCC1C2[C@@H](O)CC2(C)C1CC[C@]2(O)C(=O)COP(=O)(O)O (some centres not stated) .
Outgoing: false

Incoming: Please let me know the test result on file for COc1cc(C/C=C/c2ccccc2)c(OC)cc1O .
Outgoing: false

Incoming: Please let me know the test result on file for OC(COc1ccc(F)cc1)(c1ccc(Cl)cc1)c1ccc(Cl)cc1 .
Outgoing: false

Numbers sourced from PubChem BioAssay AID1159580.
